Subject Of Test: GPR17 (Homo sapiens, UniProt Q13304)
Sequence (Q13304 whole entry): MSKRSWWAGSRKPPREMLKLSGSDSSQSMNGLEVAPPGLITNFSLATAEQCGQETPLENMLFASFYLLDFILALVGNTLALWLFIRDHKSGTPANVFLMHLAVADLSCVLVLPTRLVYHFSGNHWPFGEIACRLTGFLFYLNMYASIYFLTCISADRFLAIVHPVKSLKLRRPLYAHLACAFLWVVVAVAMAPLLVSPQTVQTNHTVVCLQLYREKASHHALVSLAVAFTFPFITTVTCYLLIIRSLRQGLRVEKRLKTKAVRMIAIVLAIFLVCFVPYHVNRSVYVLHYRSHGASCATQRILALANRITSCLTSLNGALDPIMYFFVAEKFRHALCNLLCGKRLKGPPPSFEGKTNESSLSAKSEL
Assay Text: cAMP accumulation functional assay (HTRF, Schild analysis)
Assay type: cell-based
Design: host or cells: Flp-In T-REx CHO
Measurement Parameters: CHO hGPR17 cells, Schild analysis vs MDL29,951, 5 μM forskolin, read-out: cAMP assay pA2 (converted)
Readout: Kb

Hello, I am looking for reported Kb with GPR17 (Homo sapiens, UniProt Q13304) for "O=S(=O)(Nc1cccc2nsnc12)c1c[nH]c2cc(C(F)(F)F)ccc12" . Could you help?
3.16 to 31.6 nM

Enter reported Kb observed with GPR17 (Homo sapiens, UniProt Q13304) for "O=S(=O)(Nc1ccc(I)cc1F)c1c[nH]c2cc(Cl)ccc12"
< 3.16 nM

API: value(readout=Kb, system=GPR17 (Homo sapiens, UniProt Q13304)) for record "N#Cc1ccc(NS(=O)(=O)c2c[nH]c3cc(-c4ccsc4)ccc23)c(F)c1"
3.16 to 31.6 nM

# returns recorded Kb (system: GPR17 (Homo sapiens, UniProt Q13304)) for "Cc1noc(C)c1-c1c(Cl)ccc2c(S(=O)(=O)Nc3cc(F)c(Cl)cc3F)c[nH]c12"
3.16 to 31.6 nM

Any idea what Kb came out for "COc1nc(NS(=O)(=O)c2csc3cc(Cl)ccc23)c(F)cc1Cl" on GPR17 (Homo sapiens, UniProt Q13304)?
3.16 to 31.6 nM

Param readout = Kb; param system = GPR17 (Homo sapiens, UniProt Q13304); param query = "COc1ccc2c(S(=O)(=O)Nc3cc(F)c(Cl)cc3F)c[nH]c2n1" ; response: value
3.16 to 31.6 nM

Observed Kb on GPR17 (Homo sapiens, UniProt Q13304) for "N#Cc1ccc(NS(=O)(=O)c2c[nH]c3cc(Br)ccc23)c(F)c1" , please.
< 3.16 nM

Item "O=S(=O)(Nc1cccc2nsnc12)c1c[nH]c2nc(Br)ccc12" with GPR17 (Homo sapiens, UniProt Q13304) - Kb?
3.16 to 31.6 nM

// fetch GPR17 (Homo sapiens, UniProt Q13304) Kb for "N#CCOc1cc(F)c(NS(=O)(=O)c2c[nH]c3cc(Cl)ccc23)cc1F"
< 3.16 nM

Reported Kb for GPR17 (Homo sapiens, UniProt Q13304), given "O=C1OCc2ccc(NS(=O)(=O)c3c[nH]c4nc(Br)ccc34)cc21" ?
> 31.6 nM

Hi! What's the reported Kb for "N#Cc1ccc(NS(=O)(=O)c2c[nH]c3c2ccc2ccccc23)cc1" on GPR17 (Homo sapiens, UniProt Q13304)?
3.16 to 31.6 nM

Record "N#Cc1ccc(NS(=O)(=O)c2c[nH]c3cc(Cl)ccc23)cc1" : what is its Kb with GPR17 (Homo sapiens, UniProt Q13304)?
3.16 to 31.6 nM

What is its Kb for GPR17 (Homo sapiens, UniProt Q13304)? Entry: "O=S(=O)(Nc1ccc2nsnc2c1)c1c[nH]c2cc(Cl)ccc12"
3.16 to 31.6 nM

Form entry - test system: GPR17 (Homo sapiens, UniProt Q13304); read-out: Kb; molecule: "O=S(=O)(Nc1ccc(Cl)cc1F)c1c[nH]c2nc(Br)ccc12"
< 3.16 nM

Please tell me: Kb of "O=c1[nH]c2cccc(NS(=O)(=O)c3c[nH]c4cc(Cl)ccc34)c2o1" , system GPR17 (Homo sapiens, UniProt Q13304)?
3.16 to 31.6 nM

Could you share what Kb was measured for "CS(=O)(=O)c1ccc2c(S(=O)(=O)Nc3cccc4c3OC(F)(F)O4)c[nH]c2c1" , tested on GPR17 (Homo sapiens, UniProt Q13304)?
> 31.6 nM

Any idea what Kb came out for "O=S(=O)(Nc1cc(F)c(Cl)cc1F)c1c[nH]c2cc(Cl)c(F)cc12" on GPR17 (Homo sapiens, UniProt Q13304)?
3.16 to 31.6 nM

# returns recorded Kb (system: GPR17 (Homo sapiens, UniProt Q13304)) for "O=S(=O)(Nc1cc(F)ccc1F)c1c[nH]c2nc(Br)ccc12"
3.16 to 31.6 nM

Find Kb (GPR17 (Homo sapiens, UniProt Q13304)) for the entry "O=S(=O)(Nc1cc(F)cc(F)c1Cl)c1c[nH]c2cc(Cl)ccc12"
3.16 to 31.6 nM

What measured Kb is associated with "O=S(=O)(Nc1cccc2nsnc12)c1c[nH]c2cc(Cl)ccc12" on GPR17 (Homo sapiens, UniProt Q13304)?
3.16 to 31.6 nM

Enter reported Kb observed with GPR17 (Homo sapiens, UniProt Q13304) for "O=S(=O)(Nc1ccc(I)cc1F)c1c[nH]c2cc(F)ccc12"
3.16 to 31.6 nM

Kindly state the measured Kb obtained for "CS(=O)(=O)c1ccc2c(S(=O)(=O)Nc3cc4c(cc3F)OC(F)(F)O4)c[nH]c2c1" with GPR17 (Homo sapiens, UniProt Q13304).
3.16 to 31.6 nM

Item: "O=S(=O)(Nc1cc(F)c(F)cc1F)c1c[nH]c2nc(Br)ccc12" Test system: GPR17 (Homo sapiens, UniProt Q13304) Read-out: Kb Value: ?
3.16 to 31.6 nM

For the record "O=S(=O)(Nc1ccc(S(F)(F)(F)(F)F)cc1F)c1c[nH]c2nc(Cl)ccc12" , what value of Kb is listed for GPR17 (Homo sapiens, UniProt Q13304)?
3.16 to 31.6 nM

# value lookup — system GPR17 (Homo sapiens, UniProt Q13304), readout Kb, item "N#Cc1ccc(NS(=O)(=O)c2c[nH]c3c2ccc2ccccc23)c(F)c1"
< 3.16 nM

API: value(readout= Kb, system= GPR17 (Homo sapiens, UniProt Q13304), query= "O=S(=O)(Nc1cc2nsnc2cc1F)c1c[nH]c2cc(Cl)ccc12" )
< 3.16 nM

# get_value(readout= Kb, system= GPR17 (Homo sapiens, UniProt Q13304)) for "N#Cc1ccc(NS(=O)(=O)c2c[nH]c3cc(Cl)ccc23)c(F)c1"
< 3.16 nM

Item "N#Cc1ccc2c(S(=O)(=O)Nc3ccc(Cl)cc3F)c[nH]c2c1" with GPR17 (Homo sapiens, UniProt Q13304) - Kb?
> 31.6 nM

Notebook entry, GPR17 (Homo sapiens, UniProt Q13304) assay: Kb of "O=S(=O)(Nc1cccc2nsnc12)c1c[nH]c2c1ccc1ccccc12" = ?
< 3.16 nM

So what Kb did "O=S(=O)(Nc1cccc(F)c1Cl)c1c[nH]c2nc(Br)ccc12" get with GPR17 (Homo sapiens, UniProt Q13304)?
3.16 to 31.6 nM

API: value(readout= Kb, system= GPR17 (Homo sapiens, UniProt Q13304), query= "Cc1ccc2c(S(=O)(=O)Nc3ccc(Cl)cc3F)c[nH]c2c1" )
3.16 to 31.6 nM

Param readout = Kb; param system = GPR17 (Homo sapiens, UniProt Q13304); param query = "COc1nc(NS(=O)(=O)c2c[nH]c3c(OC(F)F)c(Cl)ccc23)c(F)cc1F" ; response: value
3.16 to 31.6 nM

I'm curious: which Kb was measured for "CCc1cc(F)c(NS(=O)(=O)c2c[nH]c3cc(Cl)ccc23)nc1F" tested on GPR17 (Homo sapiens, UniProt Q13304)?
< 3.16 nM

Could you share what Kb was measured for "O=S(=O)(Nc1ccc(OC(F)(F)F)cc1F)c1c[nH]c2nc(Cl)ccc12" , tested on GPR17 (Homo sapiens, UniProt Q13304)?
3.16 to 31.6 nM

###

Subject Of Test: GPR17 (Homo sapiens, UniProt Q13304)
Assay Text: cAMP accumulation functional assay (HTRF, Schild analysis)
Type: cell-based
Set-up: host or cells: Flp-In T-REx CHO
Measurement Parameters: CHO hGPR17 cells, Schild analysis vs MDL29,951, 5 μM forskolin, read-out: cAMP assay pA2 (converted)
Readout: Kb

What value of Kb has been reported for the following molecule? "O=S(=O)(Nc1ccc2nonc2c1)c1c[nH]c2cc(Cl)ccc12"
< 3.16 nM

Any idea what Kb was measured for "C#Cc1ccc(NS(=O)(=O)c2c[nH]c3cc(Cl)ccc23)c(F)c1" ?
< 3.16 nM

Item "O=S(=O)(Nc1cccc2c1OC(F)(F)O2)c1c[nH]c2nc(Cl)ccc12" has what recorded Kb?
3.16 to 31.6 nM

Which Kb value is on record for "CS(=O)(=O)c1ccc2c(S(=O)(=O)Nc3ccc(C#N)cc3)c[nH]c2c1" ?
3.16 to 31.6 nM

I have this molecule here, "Cc1c(Br)ccc2c(S(=O)(=O)Nc3ncc(Cl)cc3F)c[nH]c12" , and I need its recorded Kb.
< 3.16 nM

Please give the measured Kb for this molecule: "COc1nc(NS(=O)(=O)c2c[nH]c3c(Br)c(Cl)ccc23)c(F)cc1Cl"
< 3.16 nM

Data request, read-out Kb, for "N#CCOc1cc(F)c(NS(=O)(=O)c2c[nH]c3c2ccc2cccnc23)cc1F"
< 3.16 nM

Would you mind telling me what Kb value was observed for "C=Cc1cc(F)c(NS(=O)(=O)c2c[nH]c3cc(Cl)ccc23)nc1F" ?
< 3.16 nM

Can you share its Kb? I mean this molecule: "O=S(=O)(Nc1cccc2nsnc12)c1c[nH]c2nc(Cl)ccc12"
3.16 to 31.6 nM

Data request, read-out Kb, for "COc1ccc2c(S(=O)(=O)Nc3cc(F)c(Cl)cc3F)c(F)[nH]c2c1"
3.16 to 31.6 nM

Requested read-out: Kb. Entry: "O=S(=O)(Nc1nc(F)c(Br)cc1F)c1c[nH]c2cc(Cl)ccc12"
< 3.16 nM

Reported Kb, molecule "Cc1cc(F)c(NS(=O)(=O)c2c[nH]c3cc(Cl)ccc23)nc1F" : ____
3.16 to 31.6 nM

Reported Kb for "Cc1cc(F)c(NS(=O)(=O)c2c[nH]c3nc(Cl)ccc23)cc1F" : what is it?
< 3.16 nM

Return reported Kb; argument: "O=S(=O)(Nc1ncc(Cl)cc1F)c1c[nH]c2c1ccc1ccccc12"
< 3.16 nM

Quick one: Kb of "COc1ccc2c(S(=O)(=O)Nc3cc(F)c(Br)cc3F)c[nH]c2n1" ?
< 3.16 nM

Data request, read-out Kb, for "O=S(=O)(Nc1cc(F)c(Cl)cc1F)c1c[nH]c2cc(Cl)c(Br)cc12"
3.16 to 31.6 nM

Can you share its Kb? I mean this molecule: "O=S(=O)(Nc1cc(F)c(Cl)cc1F)c1c[nH]c2cc(OCC(F)(F)F)ccc12"
3.16 to 31.6 nM
